B1: TPR 5TU (parent)
chain: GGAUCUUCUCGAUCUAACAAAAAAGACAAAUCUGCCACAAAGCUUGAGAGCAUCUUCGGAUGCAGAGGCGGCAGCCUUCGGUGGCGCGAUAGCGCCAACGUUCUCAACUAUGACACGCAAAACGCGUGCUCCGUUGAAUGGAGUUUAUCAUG

Variants of: B1
Experiment: polymerase ribozyme fitness, log enrichment relative to wild type (log ratio); higher = more active; in vitro selection for triplet polymerase activity
Fewer inactive variants are shown than the library holds.
experimental-readout: polymerase ribozyme fitness (log ratio)
Answer using only a numeral; do not append any unit.

INSERT INTO measurements (mutation_notation, numeric_value) VALUES
  ('G59A G86U A119U G140U', -3.26),
  ('A24U G80C', -4.14),
  ('C96U C123A', -0.106),
  ('C27A G58U C95U C96A G124U', -4.08),
  ('A120C C125G G133U', -3.85),
  ('A40U C85G', -1.32),
  ('U55A U144C', 0.176),
  ('G50C A64G A89C G94C U101G A106U G133U', -4.12);

Query: Given the entry U61A G80A , report its measured polymerase ribozyme fitness (log ratio).
Response: -2.08

Query: Any idea what its polymerase ribozyme fitness (log ratio) is? The variant is G124C G140C
Response: -4.05

Value source: the RNAGym collection of RNA variant scans (doi:10.1073/pnas.2313332121)
